# test_target: T1, GFP-9S library array, motif 4 ND N98I;D124W (synthetic construct, N98I;D124W)
# T1 chain: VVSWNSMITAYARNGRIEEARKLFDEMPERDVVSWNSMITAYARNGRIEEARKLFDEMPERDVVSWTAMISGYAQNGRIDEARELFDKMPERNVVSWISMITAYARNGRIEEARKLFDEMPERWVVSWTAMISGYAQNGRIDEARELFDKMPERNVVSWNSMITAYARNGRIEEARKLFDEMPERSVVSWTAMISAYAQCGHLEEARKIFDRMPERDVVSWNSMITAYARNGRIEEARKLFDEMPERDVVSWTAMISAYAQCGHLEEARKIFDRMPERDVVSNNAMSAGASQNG
# protocol: high-throughput RNA pulldown from lysate on Ni-NTA beads; HRP: 50 mM Tris pH 8, 150 mM NaCl, 1 mM beta-mercaptoethanol, 50 ug/ml BSA, 3 ug/ml yeast RNA, 0.5% heparin; ITC and FP: Tris pH 8, 200 mM KCl, 5% glycerol; MST: 50 mM Tris pH 8, 200 mM NaCl, 1 mM DTT, BSA, heparin, 0.05% Tween 20
# details: tags: N-terminal His-eGFP; label: 5' IRDye 800CW
readout_name: pKd
One number for each entry, as −log10 of the molar value.

AUUAUACGUGA (ssRNA) [IR-rpoA-U]	6.87

Below: the item to evaluate.
# lookup: pKd of AUUAAACGUGA (ssRNA) [IR-rpoA-A]
6.60
